# assayed.target: T1, mature human GDF-15 (human, UniProt Q99988 197-308)
# T1 construct: Homodimer; also called hGDF-15; recombinant hu-GDF15
# T1 sequence: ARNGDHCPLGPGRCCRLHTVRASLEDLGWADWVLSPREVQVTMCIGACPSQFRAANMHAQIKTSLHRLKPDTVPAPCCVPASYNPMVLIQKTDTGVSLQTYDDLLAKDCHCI
# assay.comment: HTRF epitope competition; competitor DyLight 650 labelled Antibody A; Europium labelled human GDF-15
quantity.measured: pIC50
Note on units: pIC50 is unitless, being -log10 of a concentration expressed in mol/L.

binder: AB1170002 (antibody, V domains shown) VH: QVTLKESGPGILQPSQTLSLTCSFSGFSLSTYGMGVGWIRQPSGKGLEWLANIWWNDDKYYNSALKSRLTISKDTSNNQVFLKISSVDTADTVTYYCAQVGYDWFAYWGQGTLVTVSS VL: EIVLTQSPALMAASPGEKVTITCSVSSSISSSNLHWYQQKSETSPKPWIYGTSNLASGVPVRFSGSGSGTSYSLTISSMEAEDAATYYCQQCSSYPLTFGAGTKLELK
pIC50: 8.21

// next item, pIC50 requested
Prompt: // fetch pIC50 given entry AB1170047 (antibody, V domains shown) VH: QVQLQQSGPELVKPGASVKLSCKASGYTFTSYDINWVKQRPGQGLEWIGWIYPRDGISKYNEKFKGKATLTVDTSSSTAYMELHSLTSEDSAVYFCAGTYDPAYFDYWGQGTTLTVSS VL: DIVLTQSPATLSVTPGDRVSLSCRASQSISYYLHWYQQKSHESPRLLIKYASQSISGIPSRFSGSGSGTDFTLSINSVETEDFGMYFCQQSNSWPYTFGGGTKLEIK
Response: 8.87
